system-under-test: human CXCR4 receptor (wild type) (human, UniProt P61073 1-352)
Sequence (P61073 whole entry): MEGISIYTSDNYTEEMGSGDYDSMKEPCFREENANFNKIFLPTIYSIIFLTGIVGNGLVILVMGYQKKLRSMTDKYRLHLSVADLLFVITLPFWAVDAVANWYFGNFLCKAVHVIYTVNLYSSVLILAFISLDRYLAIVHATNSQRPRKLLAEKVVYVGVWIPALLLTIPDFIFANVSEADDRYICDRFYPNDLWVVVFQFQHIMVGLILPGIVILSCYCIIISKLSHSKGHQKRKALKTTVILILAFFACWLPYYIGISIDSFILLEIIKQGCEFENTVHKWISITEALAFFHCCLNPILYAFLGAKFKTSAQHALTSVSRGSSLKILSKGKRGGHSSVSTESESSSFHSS
protocol-text: cell-based or functional assay
parameter-measured: IC50, [35S]GTPγS binding, NIH3T3/CXCR4 cells

Qu. Name the recorded IC50, [35S]GTPγS binding, NIH3T3/CXCR4 cells for humanized antibody Hz515H7 VH1 D76N VL2.3 (antibody, human IgG1, kappa, V domains shown) VH: EVQLVESGGGLVQPGRSLRLSCTASGFTFTDNYMSWVRQAPGKGLEWVGFIRNKANGYTTEYAASVKGRFTISRDNSKSIAYLQMNSLKTEDTAVYYCARDVGSNYFDYWGQGTLVTVSS VL: DIVMTQSPDSLAVSLGERATMSCKSSQSLFNSRTRKNYLAWYQQKPGQPPKLLIYWASARDSGVPDRFTGSGSETYFTLTISSLQAEDLAVYYCMQSFNLRTFGQGTKVEIKR .
Ans. 8.5 nM
